Tested System: KRas G12C mutant (Homo sapiens (Human), UniProt P01116, G12C)
Sequence (P01116-2 other isoform, or with tags, fused parts or gaps G12C): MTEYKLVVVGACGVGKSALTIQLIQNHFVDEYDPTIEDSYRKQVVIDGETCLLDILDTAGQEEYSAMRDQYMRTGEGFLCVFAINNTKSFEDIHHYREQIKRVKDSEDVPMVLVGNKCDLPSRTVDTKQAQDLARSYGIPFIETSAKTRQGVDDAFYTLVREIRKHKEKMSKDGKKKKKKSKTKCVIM
Method Description: Ras GTP binding domain inhibition assay (labeled GTP)
Protocol Conditions: 20 μM compound; KRas G12C; read-out: % Inhibition at 20 μM of K-Ras mutant and wild-type protein, KRas G12C
Listed here: items and their measured inhibition at 20 µM.

Known results for molecules:
COc1cnc(-c2cnc[nH]2)nc1O [drawing 3516]: 51 to 75%
COCCNc1nc(-c2nccn2C)nc2sc(-c3cccc(OC)c3)c(-c3ccccc3)c12 [drawing 3586]: 1 to 25%
Cn1ccnc1-c1nc(NCCOC(F)(F)F)c2c(-c3ccccc3)c(-c3ccccc3)sc2n1 [drawing 3568]: 1 to 25%
Cn1ccnc1-c1nc(O)c2scc(-c3cccc(Cl)c3)c2n1 [drawing 3617]: 25 to 50%
Cc1sc2c(O)nc(-c3nccn3C)nc2c1-c1ccc(F)cc1F [drawing 3621]: 1 to 25%
Oc1nc(-c2ccccn2)nc(Oc2cccc(C(F)(F)F)c2)c1O [drawing 3558]: 51 to 75%
CC(C)Oc1ccc(-c2csc3c(O)nc(-c4nccn4C)nc23)cc1F [drawing 3609]: 25 to 50%
Oc1cccc(-c2csc3c(O)nc(-c4ccccn4)nc23)n1 [drawing 3498]: 25 to 50%
COCCNc1nc(-c2cn(C)cn2)nc2sc(-c3ccccc3)c(-c3ccccc3)c12 [drawing 3583]: 25 to 50%
Cn1ccnc1-c1nc(O)c2scc(-c3ccc(F)cc3F)c2n1 [drawing 3616]: 1 to 25%

Attention now shifts to the item below.
Recorded result, Oc1nc(-c2ccccn2)nc2c(CC3CCNC3)csc12 (stereo not drawn) [drawing 3526] , inhibition at 20 µM: 51 to 75%

###

Tested System: Rho-A (Homo sapiens (Human))
Sequence (P61586 whole entry): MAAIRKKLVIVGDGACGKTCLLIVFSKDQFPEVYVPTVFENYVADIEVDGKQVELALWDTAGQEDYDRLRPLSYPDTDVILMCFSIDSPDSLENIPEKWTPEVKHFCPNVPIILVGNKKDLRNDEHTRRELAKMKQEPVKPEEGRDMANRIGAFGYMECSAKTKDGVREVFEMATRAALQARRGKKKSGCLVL
Method Description: Rho inhibition assay (labeled GTP)
Type: binding
Protocol Conditions: read-out: Rho-A % Inh.
Listed here: items and their measured inhibition at 20 µM.

COc1ccc(CCC(=O)Nc2nc(-c3ccccn3)nc3sccc23)cn1 [drawing 3812]: 76 to 100%
COCCNc1nc(-c2ccncn2)nc2sc(-c3ccccc3)c(-c3ccccc3)c12 [drawing 3892]: 1 to 25%
Cc1cc2nc(-c3ccccn3)nc(N)c2s1 [drawing 3708]: 76 to 100%
COc1ccc(CCNC(=O)c2csc3nc(-c4ccccn4)nc(N4CCS(=O)(=O)CC4)c23)cn1 [drawing 3725]: 1 to 25%
O=C(NCCc1ccc(O)c(O)c1)c1csc2nc(-c3ccccn3)nc(N3CCOCC3)c12 [drawing 3674]: 25 to 50%
Cc1c(-c2csc3c(O)nc(-c4ccccn4)nc23)cnn1C [drawing 3824]: 76 to 100%
Oc1nc(-c2ccccn2)nc2c(-c3ccsc3)csc12 [drawing 3747]: 51 to 75%
O=C(NCCc1ccnc(O)c1)c1csc2nc(-c3ccccn3)nc(N3CCOCC3)c12 [drawing 3672]: 25 to 50%
N#Cc1ccc2c(c1)CCCC2C(=O)Nc1ccnc(-c2ccccn2)n1 (stereo not drawn) [drawing 3727]: 51 to 75%
Oc1nc(-c2ccccn2)nc2c(CC3CCNCC3)csc12 [drawing 3805]: 76 to 100%

Recorded result, O=C(c1csc2c(O)nc(-c3ccccn3)nc12)N1CCNC(Cc2ccc(F)cc2)C1 (stereo not drawn) [drawing 3703] , inhibition at 20 µM: 76 to 100%

Recorded result, COc1cnc(CNC(=O)c2cc3nc(-c4ccccn4)nc(O)c3s2)[nH]c1=O [drawing 3839] , inhibition at 20 µM: 51 to 75%

Recorded result, COc1nc(-c2ccccn2)nc2c(C3CCC3)csc12 [drawing 3799] , inhibition at 20 µM: 76 to 100%

Recorded result, O=C(NCCc1nnn[nH]1)c1csc2nc(-c3ccccn3)nc(N3CCOCC3)c12 [drawing 3675] , inhibition at 20 µM: 51 to 75%

Recorded result, COc1ccc(-c2c(C)sc3c(O)nc(-c4nccn4C)nc23)cn1 [drawing 3919] , inhibition at 20 µM: 0%

Recorded result, COCCNc1nc(-c2ccccn2)nc(-c2cccc(OCCN(C)C)c2)c1Oc1ccccc1 [drawing 3847] , inhibition at 20 µM: 1 to 25%

Recorded result, COc1ccccc1C1CN(C(=O)c2csc3c(O)nc(-c4ccccn4)nc23)CCN1 (stereo not drawn) [drawing 3661] , inhibition at 20 µM: 76 to 100%

Recorded result, Cn1ccnc1-c1nc(O)c2scc(-c3cccc(Cl)c3)c2n1 [drawing 3935] , inhibition at 20 µM: 51 to 75%
